Biological target: EGFR del19/T790M/C797S (Homo sapiens, UniProt P00533, C797S/DEL746-750/T790M)
Sequence (P00533 with tags, fused parts or gaps DEL746-750/T790M/C797S): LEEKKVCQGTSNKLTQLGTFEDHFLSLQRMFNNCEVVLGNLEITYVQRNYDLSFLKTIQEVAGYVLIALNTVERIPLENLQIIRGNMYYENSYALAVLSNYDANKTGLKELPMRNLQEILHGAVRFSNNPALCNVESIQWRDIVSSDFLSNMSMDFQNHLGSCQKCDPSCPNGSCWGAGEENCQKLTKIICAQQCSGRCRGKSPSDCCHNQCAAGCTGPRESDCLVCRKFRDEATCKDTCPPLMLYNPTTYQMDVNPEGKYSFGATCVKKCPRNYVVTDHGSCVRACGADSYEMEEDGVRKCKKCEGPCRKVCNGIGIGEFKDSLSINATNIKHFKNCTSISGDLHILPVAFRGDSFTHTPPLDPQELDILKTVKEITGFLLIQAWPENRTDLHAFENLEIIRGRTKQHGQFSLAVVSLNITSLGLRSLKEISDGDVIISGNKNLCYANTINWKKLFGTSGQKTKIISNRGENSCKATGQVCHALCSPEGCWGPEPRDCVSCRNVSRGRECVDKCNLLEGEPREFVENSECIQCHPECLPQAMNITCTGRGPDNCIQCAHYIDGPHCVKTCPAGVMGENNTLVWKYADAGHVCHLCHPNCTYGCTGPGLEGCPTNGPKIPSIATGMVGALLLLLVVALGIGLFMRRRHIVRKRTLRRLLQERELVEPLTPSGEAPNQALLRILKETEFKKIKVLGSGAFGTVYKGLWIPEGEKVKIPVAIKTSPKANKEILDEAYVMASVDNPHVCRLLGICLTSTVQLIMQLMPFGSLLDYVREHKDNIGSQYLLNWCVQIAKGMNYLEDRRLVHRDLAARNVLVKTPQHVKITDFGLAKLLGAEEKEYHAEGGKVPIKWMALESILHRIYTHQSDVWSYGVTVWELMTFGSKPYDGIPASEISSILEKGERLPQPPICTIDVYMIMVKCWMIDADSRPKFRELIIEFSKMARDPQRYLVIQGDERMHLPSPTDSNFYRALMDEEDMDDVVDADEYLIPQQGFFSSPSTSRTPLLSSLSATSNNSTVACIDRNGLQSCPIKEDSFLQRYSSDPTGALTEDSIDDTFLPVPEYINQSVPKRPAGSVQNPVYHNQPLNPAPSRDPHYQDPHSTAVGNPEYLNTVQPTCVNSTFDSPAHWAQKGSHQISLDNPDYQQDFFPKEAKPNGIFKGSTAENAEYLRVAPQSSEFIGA
Experiment: Biochemical EGFR kinase assay (Lance Ultra TR-FRET), triple mutant del19/T790M/C797S
Conditions: ATP at Km; read-out: IC50 del19/T790M/C797S, Km ATP
pIC50: −log10 of the molar value.
measured_property: pIC50

// solved cases for pIC50 follow
Query string: Kindly state the measured pIC50 obtained for CN(C)S(=O)(=O)n1cc(-c2nccc(Nc3cc(NC4CCC(C)(O)CC4)c(-c4ccc(C(C)(O)C(F)(F)F)cn4)cn3)n2)cn1 (stereo not drawn) with EGFR del19/T790M/C797S (Homo sapiens, UniProt P00533, C797S/DEL746-750/T790M).
Result string: 8.74

Query string: What pIC50 appears in the records for this compound with EGFR del19/T790M/C797S (Homo sapiens, UniProt P00533, C797S/DEL746-750/T790M)? "CN1CCC(Oc2ccc(-c3cnc(Nc4ccnc(-c5cnn(S(=O)(=O)C6CC6)c5)n4)cc3N[C@H]3CC[C@@](C)(O)CC3)nc2)CC1"
Result string: 9.40

Query string: API: value(readout=pIC50, system=EGFR del19/T790M/C797S (Homo sapiens, UniProt P00533, C797S/DEL746-750/T790M)) for record "CN(C)S(=O)(=O)n1cc(-c2nccc(Nc3cc(N[C@H]4CC[C@@](C)(O)CC4)c(-c4ccc(CC(F)(F)F)cn4)cn3)n2)cn1"
Result string: 8.35

Query string: Return pIC50 measured with EGFR del19/T790M/C797S (Homo sapiens, UniProt P00533, C797S/DEL746-750/T790M) given this compound: "C[C@]1(O)CC[C@@H](Nc2cc(Nc3ccnc(-c4cnn(S(=O)(=O)C5CC5)c4)n3)ncc2-c2ccc(CC(F)(F)F)cn2)CC1"
Result string: 8.68

Query string: Missing value: pIC50, EGFR del19/T790M/C797S (Homo sapiens, UniProt P00533, C797S/DEL746-750/T790M), entry "C[C@]1(O)CC[C@@H](Nc2cc(Nc3ccnc(-c4cnn(S(=O)(=O)C5CC5)c4)n3)ncc2-c2cc(OCCN3CCOCC3)ccn2)CC1" . Fill in?
Result string: 9.52

A: CN1CCC(Oc2ccc(-c3cnc(Nc4ccnc(-c5cnn(S(=O)(=O)C6CC6)c5)n4)cc3NC3CCC(F)CC3)nc2)CC1 (stereo not drawn)
B: CN1CCC(Oc2ccc(-c3cnc(Nc4nc(-c5cnn(S(=O)(=O)C6CC6)c5)ncc4F)cc3N[C@H]3CC[C@@](C)(O)CC3)nc2)CC1
Query string: Param pair: A , B . Output: the one whose pIC50 is numerically greater. To answer, give the label that identifies your chosen option.
Result string: A
(A: 10.40, B: 9.52)

I: CN1CCC(Oc2cccc(-c3cnc(Nc4ccnc(-c5cnn(S(=O)(=O)C6CC6)c5)n4)cc3N[C@H]3CC[C@@](C)(O)CC3)n2)CC1
II: COC(c1ccc(-c2cnc(Nc3ccnc(-c4cnn(S(=O)(=O)C5CC5)c4)n3)cc2NC2CCC(CO)CC2)nc1)C(F)(F)F (stereo not drawn)
III: CN1CCC(Oc2ccc(-c3cnc(Nc4ccnc(-c5cnn(S(=O)(=O)C6CC6)c5)n4)cc3NC3CCC(F)(F)CC3)nc2)CC1
IV: CC(C)(O)c1ccc(-c2cnc(Nc3ccnc(-c4cnn(S(=O)(=O)C5CC5)c4)n3)cc2N[C@H]2CC[C@@H](CO)CC2)nc1
Query string: Hey, can you sort those compounds up there by pIC50, smallest first? List the labels according to the requested ordering.
Result string: II, IV, I, III
(II: 8.02, IV: 9.10, I: 9.70, III: 10.00)

A: CC(C)(O)[C@H]1CC[C@@H](Nc2cc(Nc3ccnc(-c4cnn(S(=O)(=O)C5CC5)c4)n3)ncc2-c2ccc(C(=O)N3CCOCC3)cn2)CC1
B: CN1CCN(C(=O)c2ccc(-c3cnc(Nc4ccnc(-c5cnn(S(=O)(=O)C6CC6)c5)n4)cc3N[C@H]3CC[C@@H](CN(C)C)CC3)nc2)CC1
Query string: Larger number for pIC50: A , or B ? Write the label of whichever entry you select.
Result string: B
(B: 10.00, A: 9.52)

A: CN1CCN(C(=O)c2ccc(-c3cnc(Nc4ccnc(-c5cnn(S(=O)(=O)C6CC6)c5)n4)cc3N[C@H]3CC[C@@](C)(O)CC3)nc2)CC1
B: CC(O)(c1ccc(-c2cnc(Nc3ccnc(-c4cnn(S(=O)(=O)C5CC5)c4)n3)cc2N[C@H]2CCC[C@H](CO)C2)nc1)C(F)(F)F (stereo partly drawn)
C: CC(C)(F)c1ccc(-c2cnc(Nc3ccnc(-c4cnn(S(=O)(=O)C5CC5)c4)n3)cc2NC2CCC(F)(F)CC2)nc1
Query string: Please list these in order of increasing pIC50. Thank you! Show the ranking through the labels, in the order asked for.
Result string: C, B, A
(C: 7.70, B: 8.41, A: 9.40)
